tested on: Human papillomavirus type 1a E7 protein (residues 1-88); assay: HPV1a E7 small-molecule binders, primary screen, biochemical, small-molecule microarray, residues 1-88, 635 nm (AID 1129); conditions: small-molecule microarray binding, fluorescence 635 nm; higher = more signal
Kindly supply the reported composite z-score values for the records listed here.
Numbers only.

[
  {
    "COMPOUND": "CCC[C@@H]1C[C@@]1(CCC)[C@@H](NC(=O)OCc1ccccc1)c1ccc(-c2ccccc2)cc1",
    "METRIC_NAME": "composite z-score",
    "OBS_VALUE": -0.691
  },
  {
    "COMPOUND": "CC(C)Cc1ccc(CN2CC[C@@H](NC(=O)Nc3ccccc3)C2)cc1",
    "METRIC_NAME": "composite z-score",
    "OBS_VALUE": -1.63
  },
  {
    "COMPOUND": "CN1C(=O)C2C=CC(C(O)c3cccc4ccccc34)N(N3CCCCC3)C2C1=O (configuration not stated)",
    "METRIC_NAME": "composite z-score",
    "OBS_VALUE": 1.15
  },
  {
    "COMPOUND": "COc1ccc([Si](C)(C)[C@@H]2[C@@H](CCn3cc([C@H](O)c4ccccc4)nn3)O[C@]3(C(=O)N(Cc4ccc(N5CCC5=O)cc4)c4ccccc43)[C@H]2C)cc1",
    "METRIC_NAME": "composite z-score",
    "OBS_VALUE": -0.304
  },
  {
    "COMPOUND": "C=CCOC(=O)[C@H]1[C@@H]2C(=O)O[C@@H](c3ccccc3)[C@@H](c3ccccc3)N2[C@@H](c2ccc(OCCOC(=O)[C@H]3C[C@H]4C(=O)N[C@@H](CC(C)C)C(=O)N4[C@H]3c3cccc(OCCO)c3)cc2)[C@]12C(=O)Nc1ccc(I)cc12",
    "METRIC_NAME": "composite z-score",
    "OBS_VALUE": 1.18
  }
]

Below is a list of compounds. For each, state its recorded composite z-score.
1. COC(=O)[C@@]1(Cc2ccccc2)[C@H]2c3cc(C(=O)N(C)C)n(CCc4ccc(O)c(OC)c4)c3C[C@H]2CN1C(=O)c1ccccc1
2. CCCCCCc1nc(C2CC2)cc2c1[Si](C(C)C)(C(C)C)O[C@H]2c1ccccc1

A.
0.88
-0.873

###

test system: Plasmodium falciparum Sir2 (PF13_0152, Sir2A); test: pfSir2 binders on small-molecule microarrays, primary screen, biochemical, small-molecule microarray, 635 nm fluorescence (AID 1098); settings: small-molecule microarray binding, fluorescence 635 nm; higher = more signal;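 further: score merges spot fluorescence intensity with its signal-to-noise ratio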
Categories are defined by ranges of composite z-score, namely low bin = under 0.5, mid bin = from 0.5 up to 1, high bin = 1 and over

Below, 5 molecules whose answers are already recorded.
[
  {
    "MOLECULE": "COc1ccc([Si](C)(C)[C@@H]2[C@@H](CCn3cc([C@H](O)c4ccccc4)nn3)O[C@]3(C(=O)N(Cc4ccc(N5CCC5=O)cc4)c4ccccc43)[C@H]2C)cc1",
    "DISCRETE_LABEL": "low bin"
  },
  {
    "MOLECULE": "COc1cc(OC)c(C(O)C2C=CC3C(=O)N(c4ccccc4)C(=O)C3N2Nc2ccccc2)cc1Br (configuration not stated)",
    "DISCRETE_LABEL": "high bin"
  },
  {
    "MOLECULE": "CO[C@H]1O[C@H](CO)[C@@H](OC(=O)Nc2ccccc2-c2ccccc2)[C@H](OC(=O)Nc2ccc3c(c2)OCO3)[C@H]1OC(=O)Nc1ccc2c(c1)OCO2",
    "DISCRETE_LABEL": "high bin"
  },
  {
    "MOLECULE": "C=C(CCCC)/C(=C/C[C@@H](OC(=O)c1ccncc1)c1ccccc1OCCO)c1cnc2ccccc2c1",
    "DISCRETE_LABEL": "high bin"
  },
  {
    "MOLECULE": "COCCOC(=O)N1C(=O)[C@@]2(c3cc(C#CCC(C(=O)OC)C(=O)OC)ccc31)[C@H](C(=O)N1CCc3cc(OC)c(OC)cc3C1)[C@H]1C(=O)O[C@H](c3ccccc3)[C@H](c3ccccc3)N1[C@@H]2c1ccc(OCCO)cc1",
    "DISCRETE_LABEL": "high bin"
  }
]

Q. Hello team, could you let me know which band the following molecule falls into: C=CCC(OC(C)=O)[C@@H]1[C@@H](N(Cc2cc3ccccc3o2)C(=O)c2ccc(-c3ccccc3)cc2)c2cc(OCCCO)ccc2N1C(=O)c1ccc2ccccc2c1 (some centres not stated)
A. low bin

Q. Hello team, could you let me know which band the following molecule falls into: CC(CO)N1C(=O)[C@@H]2[C@H]3C(=O)OCC=C[C@H]3OC23C=CCN(C(C)(C)C)C(=O)[C@@H]13 (some centres not stated)
A. low bin

Q. Hello team, could you let me know which band the following molecule falls into: CC(C)C(CO)N1C(=O)[C@@H]2C3C(=O)OCCC/C=C\[C@H]3OC23C=CCN(C(C)(C)C)C(=O)[C@@H]13 (some centres not stated)
A. high bin

Q. Hello team, could you let me know which band the following molecule falls into: CCCCCCc1nc(C2CC2)cc2c1[Si](C(C)C)(C(C)C)O[C@H]2c1ccccc1
A. low bin

Q. Hello team, could you let me know which band the following molecule falls into: C=CC1c2cc(O)c(OC)cc2CCN1Cc1cc2c(cc1Br)OCO2 (configuration not stated)
A. high bin

Q. Hello team, could you let me know which band the following molecule falls into: C=CCN1Cc2ccccc2[C@H]2OC(c3ccc(OCCCO)cc3)=N[C@@]2(CC=C)C1=O
A. mid bin

Q. Hello team, could you let me know which band the following molecule falls into: COCCCNC(=O)[C@@]1(Cc2ccccc2CN=[N+]=[N-])N=C(c2ccc(OCCCO)cc2)O[C@H]1c1ccccc1
A. high bin

Q. Hello team, could you let me know which band the following molecule falls into: CC(C)OC(=O)C=C1C[C@@H](c2ccc(C(F)(F)F)cc2)O[C@@H](c2ccc(C(F)(F)F)cc2)O1
A. high bin

Q. Hello team, could you let me know which band the following molecule falls into: COC(=O)c1c2oc(c1C(=O)OC)C(=O)N(Cc1ccccc1)Cc1cn(nn1)C[C@H](Cc1ccccc1)NC(=O)N[C@H](CO)CC2
A. mid bin

Q. Hello team, could you let me know which band the following molecule falls into: CN1C(=O)C2C=CC(C(O)c3cccc(O)c3)N(Nc3ccccc3)C2C1=O (configuration not stated)
A. high bin

Q. Hello team, could you let me know which band the following molecule falls into: COc1ccc([Si](C)(C)[C@@H]2[C@@H](CC(=O)N(CCO)Cc3ccccc3)O[C@]3(C(=O)N(Cc4cccc(N5CCOC5=O)c4)c4ccccc43)[C@H]2C)cc1
A. high bin

Q. Hello team, could you let me know which band the following molecule falls into: COCCOC(=O)N1C(=O)[C@@]2(c3cc(C#CC4=CCCCC4)ccc31)[C@H](C(=O)N1CCCCCCC1)[C@H]1C(=O)O[C@H](c3ccccc3)[C@H](c3ccccc3)N1[C@@H]2c1ccc(O)cc1
A. low bin

Q. Hello team, could you let me know which band the following molecule falls into: COC1OC[C@]2(C)[C@H]3C4=C(CN2C(=O)OC(C)(C)C)[C@H](C)C(CO)C(CO)C4CC[C@@H]13 (some centres not stated)
A. low bin

###

target: Left-right determination factor 2 (Homo sapiens) (UniProt O00292); experiment: LEFTY2 binders on small-molecule microarrays, primary screen, biochemical, small-molecule microarray, 635 nm fluorescence scan (AID 1110); conditions: LEFTY2 binding, higher = more signal
Sequence (O00292 whole entry, looked up): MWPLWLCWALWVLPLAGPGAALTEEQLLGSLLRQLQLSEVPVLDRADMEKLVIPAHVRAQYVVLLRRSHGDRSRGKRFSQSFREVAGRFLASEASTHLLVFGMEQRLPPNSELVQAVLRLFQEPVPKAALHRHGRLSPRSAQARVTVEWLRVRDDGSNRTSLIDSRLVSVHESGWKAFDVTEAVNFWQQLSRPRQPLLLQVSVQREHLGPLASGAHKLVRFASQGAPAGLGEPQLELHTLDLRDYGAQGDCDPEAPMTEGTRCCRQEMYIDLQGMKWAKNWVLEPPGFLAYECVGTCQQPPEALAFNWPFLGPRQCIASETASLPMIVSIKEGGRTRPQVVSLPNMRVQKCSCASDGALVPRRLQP
composite z-score of 0.09 or higher: Yes. Under 0.09: No.

[
  {
    "COMPOUND": "C=CCNC(=O)[C@H]1[C@@H]2C(=O)O[C@@H](c3ccccc3)[C@@H](c3ccccc3)N2[C@@H](c2ccc(O)cc2)[C@]12C(=O)N(C(=O)OCCOC)c1ccccc12",
    "SYSTEM": "Left-right determination factor 2 (Homo sapiens) (UniProt O00292)",
    "DISCRETE_LABEL": "Yes"
  },
  {
    "COMPOUND": "C[C@@H]1ON(c2ccc(C(=O)OC(C)(C)C)cc2)[C@H](c2ccc(O)cc2)[C@H]1C(=O)N1C(=O)OC[C@H]1Cc1ccccc1",
    "SYSTEM": "Left-right determination factor 2 (Homo sapiens) (UniProt O00292)",
    "DISCRETE_LABEL": "Yes"
  },
  {
    "COMPOUND": "[N-]=[N+]=NCc1ccccc1C[C@]1(C(N)=O)N=C(c2ccc(OCCCO)cc2)O[C@H]1c1ccccc1",
    "SYSTEM": "Left-right determination factor 2 (Homo sapiens) (UniProt O00292)",
    "DISCRETE_LABEL": "No"
  },
  {
    "COMPOUND": "COc1ccc(C(O)C2C=CC3C(=O)N(c4ccccc4)C(=O)C3N2Nc2ccc([N+](=O)[O-])cc2)cc1 (stereo unspecified)",
    "SYSTEM": "Left-right determination factor 2 (Homo sapiens) (UniProt O00292)",
    "DISCRETE_LABEL": "No"
  }
]

Lab note: next compound to report on.
Q. Exam item: decide whether the reported composite z-score for COc1ccc([Si](C)(C)[C@H]2[C@H](CC(=O)N(CCO)Cc3ccccc3)O[C@@]3(C(=O)N(Cc4cccc(N5CCOC5=O)c4)c4ccccc43)[C@@H]2C)cc1 is at least 0.09.
A. Yes

Origin of values: PubChem BioAssay
